molecular target: human GLP-1 receptor (human, UniProt P43220 24-463); assay: cell-based or functional assay
Where no end group is shown, it is not given here. [ ]: non-standard residue; d: D form. αMePhe(2,6-F2) = C[C@](N)(Cc1c(F)cccc1F)C(=O)O; αMeBip(OMe) = alpha-methylated Bip(OMe); hhPhe = N[C@@H](CCCc1ccccc1)C(=O)O; Ac5c = NC1(C(=O)O)CCCC1; Aib = CC(C)(N)C(=O)O
RECORDED_METRIC: cAMP release, % activity with respect to control, at 1 µM

Supply measured cAMP release, % activity with respect to control, at 1 µM of VVH[Aib]QGTFTSD[αMeBip(OMe)][hhPhe] (not fully specified (C-terminus); printed as VVH-Aib-QGTFTSD-(αMe-Bip(OMe))-(APPA)) [Seq. ID. No. 207] in your reply.
95 % of control

Give the measured cAMP release, % activity with respect to control, at 1 µM for VVHAQGT[αMePhe(2,6-F2)]TSD[αMeBip(OMe)][hhPhe]-NH2 [Seq. ID. No. 222]
95 % of control

# return recorded cAMP release, % activity with respect to control, at 1 µM for entry VH[Ac5c]QGTFTSD[αMeBip(OMe)][hhPhe] (not fully specified (C-terminus)) [Seq. ID. No. 9]
99 % of control
